The reported measurements were obtained from patent US8618286B2.

# Tgt: Nitric oxide synthase (endothelial, human recombinant) eNOS (Homo sapiens (Human), UniProt P29474)
# Test Summary: Human eNOS enzyme assay ([3H]-L-arginine to L-citrulline conversion)
Where a name gives a salt, the structure may show the parent alone.
Experimental Endpoint: IC50 (µM)

Solved entries:
N=C(Nc1ccc2c(c1)SCCN2CCNCCO)c1cccs1 [Compound 16, dihydrochloride] | 7
CN(CCN1CCSc2cc(NC(=N)c3cccs3)ccc21)CC(=O)O [Compound 17, dihydrochloride] | 10.9
N=C(Nc1ccc2c(c1)SCCN2CCN1CCCCC1)c1cccs1 | 11.5
CNCCN1CCSc2ccc(NC(=N)c3cccs3)cc21 | 8.58
N=C(Nc1ccc2c(c1)N(C1CCNCC1)CCS2)c1cccs1 | 43.6
N=C(Nc1ccc2c(c1)OCC(=O)N2CCN1CCCC1)c1cccs1 | 13.8
CNCCN1CCOc2ccc(NC(=N)c3cccs3)cc21 [Compound 10, dihydrochloride] | 3.82

(I) CCNCCN1CCSc2ccc(NC(=N)c3cccs3)cc21
(II) CN(C)CCN1CCSc2ccc(NC(=N)c3cccs3)cc21
(III) CN1CCCC1CCN1CCSc2cc(NC(=N)c3cccs3)ccc21 (centres unmarked)
(IV) N=C(Nc1ccc2c(c1)N(CCN1CCCC1)CCS2)c1cccs1
Could you please order the items by IC50, going from the lowest number to the highest? The response must list the labels following the requested ordering. I, III, IV, II
(I: 4.45 µM, III: 9.92 µM, IV: 18.1 µM, II: 34.9 µM)
